All figures here come from patent US20210221885A1.

Target: T1, Eu3+ cryptate labeled TIM3 (Cisbio kit, cat# 63ADK000CTLPEB) (human, UniProt Q8TDQ0 22-202, limits assumed, Eu3+ cryptate label)
T1 construct: Kit reagent; construct not described; also called Tim3-EuK protein; Tim3-EuK
T1 sequence (looked up): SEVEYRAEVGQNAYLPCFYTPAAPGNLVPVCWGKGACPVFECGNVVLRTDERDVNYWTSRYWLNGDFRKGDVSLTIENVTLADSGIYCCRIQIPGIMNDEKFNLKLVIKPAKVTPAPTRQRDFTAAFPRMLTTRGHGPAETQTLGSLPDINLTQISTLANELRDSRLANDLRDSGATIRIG
Experiment: HTRF blocking assay (Cisbio kit), antibody added to a mixture of Tim3-EuK and Tag-Gal9; blocked ligand galectin-9; the unit is that of the concentration axis
Protocol: The resultant mixture was incubated for 1 h at room temperature and then the fluorescence emission was read.
propertyName: IC50 (nM)

binder: ABTIM3 analog (antibody, human IgG4 S228P, kappa, V domains shown) VH: QVQLVQSGAEVKKPGASVKVSCKASGYTFTSYNMHWVRQAPGQGLEWIGDIYPGSGDTSYNQKFKGRATMTADKSTSTVYMELSSLRSEDTAVYYCARVGGAFPMDYWGQGTLVTVSS VL: DIVLTQSPDSLAVSLGERATINCRASESVEYYGTSLMQWYQQKPGQPPKLLIYAASNVESGVPDRFSGSGSGTDFTLTISSLQAEDVAVYYCQQSRKDPSTFGGGTKVEIKR
readingUnit: nM
observedValue: 5.87
--
binder: anti-TIM-3 antibody TIM3-11 (antibody, human IgG4 S228P, lambda, V domains shown, Full-length IgG) VH: QVQLQQSGPGLVKPSQTLSLTCAISGDSVSSNSAAWNWIRQSPSRGLEWLGRTYYRSKWYNDYAVSVKSRITINPDTSKNQFSLQLNSVTPEDTAVYYCARDQAAGFPQPYIYGMDVWGKGTMVTVSS VL: LPVLTQPPSVSKGLRQTATLTCTGNSNNVGNQGAAWLQQHQGHPPKLLTYRTNNRPSGISERFSASRSGNTASLTITGLQPEDEADYYCSGWDSSLNEGVFGGGTKLTVLG
readingUnit: nM
observedValue: 3.56
--
binder: anti-TIM-3 antibody TIM3-4G7 (antibody, human IgG4 S228P, kappa, V domains shown, Full-length IgG) VH: EVQLVETGGGLVQPGGSLRLSCAASGFTFSSYAMSWVRQAPGKGLEWVSGISGSGGSTYYADSVKGRFTTSRDNSENTLYLQMNSLRAEDTAVYYCAGSYYDDAFDIWGQGTLVTVSS VL: ETTLTQSPATLSLSPGDTATLSCRASQSVTKDLVAWYQQRPGQAPRLLLYGASSRATGIPDRFSGSGSGTDFTLTISRLEPEDFAVYYCQQYGRSPLTFGGGTKVEIKR
readingUnit: nM
observedValue: 4.73
--
binder: anti-TIM-3 antibody TIM3-6 (antibody, human IgG4 S228P, lambda, V domains shown, Full-length IgG expressed in CHO-S cells) VH: QVQLVQSGAEVKKPGSSVKVSCKASGGTFSSYTISWVRQAPGQGLEWMGRIIPILGTANYAQKFQGRVTITADESTSTAYMELSSLRSEDTAVYYCASASHTIWGKGTLVTVSS VL: QAVVTQEPSLTVSPGGTVTLTCASSTGAVTSGYSPNWFQQRPGQAPRALIYTTSNRHSWTPARFSGSLLGGKAALTLSGVQPEDEADYYCLLYYGGAWVFGGGTKLTVLG
readingUnit: nM
observedValue: 1.88
